This collection of values is drawn from patent US10517889B2.

- System: human SMAD7 mRNA
- method: Antisense inhibition of human SMAD7 mRNA expression in Hep3B cells by 3-10-3 cEt gapmers, 10,000 nM, electroporation (Example 2)
- Format: cell-based
- protocol.conditions: Hep3B cells, electroporation with 10,000 nM antisense oligonucleotide, approximately 24 hours, SMAD7 mRNA by RT-PCR (RTS5062), relative to untreated control cells
Strand notation (5' to 3'): a small letter for the sugar, then the base; units joined by * are phosphorothioate-linked, units joined directly phosphodiester-linked; [ ] holds rarer units or linkages, { } end groups; capitals alone tell only the bases. k = constrained ethyl (cEt); [5mC] = 5-methylcytosine; d = 2'-deoxy (DNA)
# reported % Inhibition; entries follow
value.kind: % Inhibition (%)

790515 (k[5mC]*kG*kT*d[5mC]*dA*dG*d[5mC]*dT*dG*dG*dA*dT*dG*k[5mC]*k[5mC]*kG; antisense) [compound 790515] | 26
800047 (antisense kA*k[5mC]*k[5mC]*d[5mC]*dA*d[5mC]*dT*dG*dA*dA*dA*d[5mC]*d[5mC]*kT*kG*kG) [compound 800047] | 28
830063 (kT*k[5mC]*k[5mC]*d[5mC]*dT*dA*d[5mC]*d[5mC]*dA*d[5mC]*d[5mC]*d[5mC]*d[5mC]*kT*kG*kT; antisense) [compound 830063] | 37
